Tested on: HCC-15
PROTOCOL DESCRIPTION: relative viability (nuclei count vs DMSO), 5 days (fraction); higher = more cells survive
PARTICULARS: first compound 0.04 µM
Friendly reminder: relative viability below 0.7 is Satisfied, at or above is Not satisfied.

[ask] Given O=C(O)c1ccc(-c2c[nH]c3ncc(-c4ccccc4)cc23)cc1C1CCCC1 + CC(=O)c1c(C)c2cnc(Nc3ccc(N4CCNCC4)cn3)nc2n(C2CCCC2)c1=O [Palbociclib] (partner 0.5 µM) , is recorded relative viability strictly lower than 0.7?
[reply] Not satisfied

[ask] Dear colleague, could you confirm whether relative viability of O=C(O)c1ccc(-c2c[nH]c3ncc(-c4ccccc4)cc23)cc1C1CCCC1 + Cc1nc(NC(=O)N2CCC[C@H]2C(N)=O)sc1-c1ccnc(C(C)(C)C(F)(F)F)c1 [Alpelisib] (partner 2 µM) falls below 0.7? Thanks.
[reply] Not satisfied

[ask] hey, is relative viability for O=C(O)c1ccc(-c2c[nH]c3ncc(-c4ccccc4)cc23)cc1C1CCCC1 + Cc1cc(Nc2cc(N3CCN(C)CC3)nc(Sc3ccc(NC(=O)C4CC4)cc3)n2)n[nH]1 [Tozasertib] (partner 0.1 µM) lower than 0.7 or not?
[reply] Satisfied

[ask] I'd appreciate it if you could check whether O=C(O)c1ccc(-c2c[nH]c3ncc(-c4ccccc4)cc23)cc1C1CCCC1 + CS(=O)(=O)N1CCN(Cc2cc3nc(-c4cccc5[nH]ncc45)nc(N4CCOCC4)c3s2)CC1 [Pictilisib] (partner 1 µM) has relative viability smaller than 0.7.
[reply] Not satisfied

[ask] Is 0.7 strictly greater than the compound's reported relative viability? compound: O=C(O)c1ccc(-c2c[nH]c3ncc(-c4ccccc4)cc23)cc1C1CCCC1 + C[C@]1(O)C[C@@H](c2nc(-c3ccc4ccc(-c5ccccc5)nc4c3)c3c(N)nccn32)C1 [Linsitinib] (partner 1 µM)
[reply] Not satisfied

----------
Test system: LXF-289
PROTOCOL DESCRIPTION: relative viability (nuclei count vs DMSO), 5 days (fraction); higher = more cells survive
PARTICULARS: first compound 0.03162 µM
MEASURED ENDPOINT: relative viability
// print number alone

[ask] Which relative viability value is on record for NC(=O)Nc1cc(-c2cccc(F)c2)sc1C(=O)N[C@H]1CCCNC1 [AZD7762] + CC(=O)Nc1cccc(-n2c(=O)n(C3CC3)c(=O)c3c(Nc4ccc(I)cc4F)n(C)c(=O)c(C)c32)c1 [Trametinib] (partner 0.02 µM) ?
[reply] 0.699

[ask] Fill in the blank: the reported relative viability of NC(=O)Nc1cc(-c2cccc(F)c2)sc1C(=O)N[C@H]1CCCNC1 [AZD7762] + CC(=O)c1c(C)c2cnc(Nc3ccc(N4CCNCC4)cn3)nc2n(C2CCCC2)c1=O [Palbociclib] (partner 0.5 µM) is ____.
[reply] 0.689

[ask] Consider the compound shown here: NC(=O)Nc1cc(-c2cccc(F)c2)sc1C(=O)N[C@H]1CCCNC1 [AZD7762] + O=C(CCCCCCC(=O)Nc1ccccc1)NO [Vorinostat] (partner 1 µM) What is its recorded relative viability?
[reply] 0.802

----------
What relative viability was measured for each of the following?
Test system: NCI-H1793
PROTOCOL DESCRIPTION: relative viability (nuclei count vs DMSO), 5 days (fraction); higher = more cells survive
PARTICULARS: first compound 2.53 µM
# output: bare number, no unit

[ask] Observed relative viability on NCI-H1793 for C=C1C(=O)O[C@@H](CCCCCCCC)[C@@H]1C(=O)O [C-75] + Cc1nc(Nc2ncc(C(=O)Nc3c(C)cccc3Cl)s2)cc(N2CCN(CCO)CC2)n1 [Dasatinib] (partner 0.075 µM) , please.
[reply] 0.352

[ask] # query: relative viability | item C=C1C(=O)O[C@@H](CCCCCCCC)[C@@H]1C(=O)O [C-75] + COc1cccc2cc(-c3nc([C@H]4CC[C@H](C(=O)O)CC4)n4ncnc(N)c34)[nH]c12 [OSI-027] (partner 0.5 µM) | system: NCI-H1793
[reply] 0.224

[ask] What reported relative viability corresponds to C=C1C(=O)O[C@@H](CCCCCCCC)[C@@H]1C(=O)O [C-75] + Nc1nc2[nH]cc(CCc3ccc(C(=O)N[C@@H](CCC(=O)O)C(=O)O)cc3)c2c(=O)[nH]1 [Pemetrexed] (partner 0.2 µM) on NCI-H1793?
[reply] 0.59

[ask] Give recorded relative viability with NCI-H1793 for the following compound: Oc1nc(-c2ccc(C(F)(F)F)cc2)nc2c1CSCC2 [XAV939] + O=C(c1cc(Cc2n[nH]c(=O)c3ccccc23)ccc1F)N1CCN(C(=O)C2CC2)CC1 [Olaparib] (partner 8 µM)
[reply] 0.646

[ask] Find relative viability (NCI-H1793) for the entry C=C1C(=O)O[C@@H](CCCCCCCC)[C@@H]1C(=O)O [C-75] + O=C(c1cc(Cc2n[nH]c(=O)c3ccccc23)ccc1F)N1CCN(C(=O)C2CC2)CC1 [Olaparib] (partner 8 µM)
[reply] 0.705

[ask] # returns recorded relative viability (system: NCI-H1793) for C=C1C(=O)O[C@@H](CCCCCCCC)[C@@H]1C(=O)O [C-75] + CC(=O)Nc1cccc(-n2c(=O)n(C3CC3)c(=O)c3c(Nc4ccc(I)cc4F)n(C)c(=O)c(C)c32)c1 [Trametinib] (partner 0.02 µM)
[reply] 0.356

[ask] Write down the reported relative viability of Oc1nc(-c2ccc(C(F)(F)F)cc2)nc2c1CSCC2 [XAV939] + CC1(C)CCC(c2ccc(Cl)cc2)=C(CN2CCN(c3ccc(C(=O)NS(=O)(=O)c4ccc(N[C@H](CCN5CCOCC5)CSc5ccccc5)c(S(=O)(=O)C(F)(F)F)c4)cc3)CC2)C1 [Navitoclax] (partner 0.5 µM) , test system: NCI-H1793.
[reply] 0.452

[ask] Missing value: relative viability, NCI-H1793, entry C=C1C(=O)O[C@@H](CCCCCCCC)[C@@H]1C(=O)O [C-75] + Cc1nc(NC(=O)N2CCC[C@H]2C(N)=O)sc1-c1ccnc(C(C)(C)C(F)(F)F)c1 [Alpelisib] (partner 2 µM) . Fill in?
[reply] 0.708

[ask] What reported relative viability corresponds to C=C1C(=O)O[C@@H](CCCCCCCC)[C@@H]1C(=O)O [C-75] + CS(=O)(=O)CCNCc1ccc(-c2ccc3ncnc(Nc4ccc(OCc5cccc(F)c5)c(Cl)c4)c3c2)o1 [Lapatinib] (partner 2 µM) on NCI-H1793?
[reply] 0.483

[ask] Find relative viability (NCI-H1793) for the entry Oc1nc(-c2ccc(C(F)(F)F)cc2)nc2c1CSCC2 [XAV939] + N=C(N)NC(=N)NCCc1ccccc1 [Phenformin] (partner 250 µM)
[reply] 0.354

----------
Test system: BEN
PROTOCOL DESCRIPTION: relative viability (nuclei count vs DMSO), 5 days (fraction); higher = more cells survive
PARTICULARS: first compound 1 µM
Give measured relative viability for each item. Keep answers brief.

[ask] Please report the recorded relative viability for NC(=O)Nc1cc(-c2cccc(F)c2)sc1C(=O)N[C@H]1CCCNC1 [AZD7762] + CS(=O)(=O)CCNCc1ccc(-c2ccc3ncnc(Nc4ccc(OCc5cccc(F)c5)c(Cl)c4)c3c2)o1 [Lapatinib] (partner 2 µM) .
[reply] 0.488

[ask] What does the data say about its relative viability? Entry: NC(=O)Nc1cc(-c2cccc(F)c2)sc1C(=O)N[C@H]1CCCNC1 [AZD7762] + Cc1cc(Nc2cc(N3CCN(C)CC3)nc(Sc3ccc(NC(=O)C4CC4)cc3)n2)n[nH]1 [Tozasertib] (partner 0.1 µM)
[reply] 0.486

[ask] Would you kindly share the measured relative viability for NC(=O)Nc1cc(-c2cccc(F)c2)sc1C(=O)N[C@H]1CCCNC1 [AZD7762] + COc1cc2c(Oc3ccc(NC(=O)C4(C(=O)Nc5ccc(F)cc5)CC4)cc3F)ccnc2cc1OCCCN1CCOCC1 [Foretinib] (partner 0.25 µM) ?
[reply] 0.596

----------
Answer each item with its documented relative viability.
Tested on: LC-2-ad
PROTOCOL DESCRIPTION: relative viability (nuclei count vs DMSO), 5 days (fraction); higher = more cells survive
PARTICULARS: first compound 0.1265 µM
Provide a numeric answer; units are not to be included.

[ask] Form entry - test system: LC-2-ad; read-out: relative viability; molecule: O=C(O)c1ccc(-c2c[nH]c3ncc(-c4ccccc4)cc23)cc1C1CCCC1 + Cc1cc(Nc2cc(N3CCN(C)CC3)nc(Sc3ccc(NC(=O)C4CC4)cc3)n2)n[nH]1 [Tozasertib] (partner 0.1 µM)
[reply] 0.407

[ask] Request body: readout relative viability, system LC-2-ad, query O=C(O)c1ccc(-c2c[nH]c3ncc(-c4ccccc4)cc23)cc1C1CCCC1 + C[C@]1(O)C[C@@H](c2nc(-c3ccc4ccc(-c5ccccc5)nc4c3)c3c(N)nccn32)C1 [Linsitinib] (partner 1 µM) . Return the value.
[reply] 0.885

[ask] Lab note: need relative viability with LC-2-ad for entry O=C(O)c1ccc(-c2c[nH]c3ncc(-c4ccccc4)cc23)cc1C1CCCC1 + CC(=O)Nc1cccc(-n2c(=O)n(C3CC3)c(=O)c3c(Nc4ccc(I)cc4F)n(C)c(=O)c(C)c32)c1 [Trametinib] (partner 0.02 µM) , please look it up.
[reply] 0.921

[ask] Hello, I am looking for reported relative viability with LC-2-ad for O=C(O)c1ccc(-c2c[nH]c3ncc(-c4ccccc4)cc23)cc1C1CCCC1 + O=C(c1cc(Cc2n[nH]c(=O)c3ccccc23)ccc1F)N1CCN(C(=O)C2CC2)CC1 [Olaparib] (partner 8 µM) . Could you help?
[reply] 0.642

[ask] Give LC-2-ad relative viability for O=C(O)c1ccc(-c2c[nH]c3ncc(-c4ccccc4)cc23)cc1C1CCCC1 + COc1cccc2cc(-c3nc([C@H]4CC[C@H](C(=O)O)CC4)n4ncnc(N)c34)[nH]c12 [OSI-027] (partner 0.5 µM)
[reply] 0.905

[ask] Could you share what relative viability was measured for O=C(O)c1ccc(-c2c[nH]c3ncc(-c4ccccc4)cc23)cc1C1CCCC1 + CC(=O)c1c(C)c2cnc(Nc3ccc(N4CCNCC4)cn3)nc2n(C2CCCC2)c1=O [Palbociclib] (partner 0.5 µM) , tested on LC-2-ad?
[reply] 0.541
